Listing of entries alongside the reported cell count.
Assay: inhibitors of TNFa-induced NFkB p65 translocation, primary screen, imaging, HUVEC, MLSMR starter and 10KST1 sets (AID 438);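 further: compound added about 3h40 before a 20 min TNFalpha stimulation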
Settings: HUVEC TNFa-induced p65 nuclear translocation; measured here: nuclei count (cytotoxicity indicator), at 2.08 µM

Known results for compounds:
compound=COc1ccc(C(N)=O)cc1N test_readout="cell count" obs_value=413
compound=C=CCNC(=O)CSc1nc2sc(C)c(C)c2c(=O)[nH]1 test_readout="cell count" obs_value=590
compound="COc1ccc(C2C3=C(OC(C)=O)c4ccccc4C3=Nc3c2c(=O)n(C)c(=O)n3C)cc1 (stereo unspecified)" test_readout="cell count" obs_value=657
compound="C=CC(O)(C#CCN(CC)CC)c1ccccc1 (stereo unspecified)" test_readout="cell count" obs_value=740
compound=COc1ccccc1Nc1nc(N)nc(-c2cc3ccccc3o2)n1 test_readout="cell count" obs_value=153

The compound listed as CCC(CO)Nc1ncnc2c1cnn2-c1ccc(Cl)cc1 (stereo unspecified) shows cell count equal to 550

// cell count lookup, compound = COc1ccc(-c2cc(C(F)(F)F)nc(N3CCN(c4ccc(F)cc4)CC3)n2)cc1OC , result: 827

Sample CCOC(=O)Cn1nnc(-c2ccc(SC)cc2)n1 ; cell count observed: 729

So for Cc1ccc(C(C)n2cc(C(=O)NCCN3CCN(C)CC3)nn2)cc1 (stereo unspecified) , the logged cell count turned out to be 429

CCCCCn1c(CN2CCN(c3cccc(Cl)c3)CC2)nc2c1c(=O)n(C)c(=O)n2C yielded cell count of 775

Notebook: COc1ccc(-c2noc(CCN3C(=O)c4ccccc4C3=O)n2)cc1OC , cell count read as 555

Values were extracted from PubChem BioAssay.
